Each recorded value in this set is attributed to patent US9096624B2.

molecular target: UniProt:Q05397; assay: Cell-based capture ELISA for inhibition of FAK autophosphorylation [pY397] in U87MG cells; settings: U87MG FAK Cell Mech IC50 +hP, + human plasma
measure: IC50

**Query** Hello, please tell me recorded IC50 for this one: COc1cc(P(C)(C)=O)ccc1Nc1ncc(Cl)c(Nc2cccc3c2C(=O)N(C)C3)n1 [Cpd B, reference compound]
**Result** > 4 µM

**Query** Hello, please tell me recorded IC50 for this one: COc1cc(P(C)(C)=O)ccc1Nc1ncc(Cl)c(Nc2ccccc2C(=O)NC(C)C)n1 [Cpd A, reference compound]
**Result** > 4 µM

**Query** Hello, please tell me recorded IC50 for this one: CCOP(=O)(Cc1ccc(Nc2ncc(C(F)(F)F)c(Nc3ccccc3C(=O)NC)n2)c(OC)c1)OCC [Ex. 53]
**Result** 0.16 µM

###

Target: UniProt:Q05397
Assay: Cell-based capture ELISA for inhibition of FAK autophosphorylation [pY397] in MiaPaCa2 cells
Details: MIA-PaCa2 cells, + 50% mouse plasma (Table 3); read-out: Mean FAK Cell Mechanistic IC50 + 50% mP MIA-PaCa2
Procedure: Cell-Based Assays for Inhibition of FAK Autophosphorylation: MiaPaCa2 and U87MG ELISA kit from Invitrogen (KHO0441). Reagents Provided in Biosource FAK [pY397] The cells were then suspended in cell assay medium.
pIC50: −log10 of the molar value.
For each record, write down the corresponding pIC50.

**Query** Hello, please tell me recorded pIC50 for this one: COCCOP(=O)(Cc1ccc(Nc2ncc(C(F)(F)F)c(Nc3ccc([C@H]4CC[C@H](O)CC4)c4c3C(=O)N(C)C4)n2)cc1)OCCOC
**Result** > 6.00

**Query** Hello, please tell me recorded pIC50 for this one: CCOP(=O)(Cc1ccc(Nc2ncc(C(F)(F)F)c(Nc3ccc([C@H]4CC[C@@H](OCC)CC4)c4c3C(=O)N(C)C4)n2)cc1)OCC
**Result** > 6.00

**Query** Hello, please tell me recorded pIC50 for this one: CCOP(=O)(Cc1ccc(Nc2ncc(C(F)(F)F)c(Nc3ccc([C@H]4CC[C@@H](OCC)CC4)c4c3C(=O)N(C)C4)n2)c(OC)c1)OCC
**Result** > 6.00

###

For each record, write down the corresponding pIC50.
biological target: UniProt Q05397; assay: biochemical
pIC50: −log10 of the molar value.

**Query** Quote pIC50 with test system UniProt Q05397 for CN(c1ncccc1CNc1nc(Nc2cccc(CP(=O)(OCC(C)(C)C)OCC(C)(C)C)c2)ncc1C(F)(F)F)S(C)(=O)=O
**Result** > 6.00

**Query** Quote pIC50 with test system UniProt Q05397 for CCOP(=O)(Cc1ccc(Nc2ncc(C(F)(F)F)c(Nc3ccc([C@H]4CC[C@](C)(O)CC4)c4c3C(=O)N(C)C4)n2)c(OC)c1)OCC
**Result** > 6.00

**Query** Quote pIC50 with test system UniProt Q05397 for CN(c1ncccc1CNc1nc(Nc2ccc(CP3(=O)OCCCO3)cc2)ncc1C(F)(F)F)S(C)(=O)=O
**Result** > 6.00

###

target: FAK (Homo sapiens); assay: Cell-based capture ELISA for inhibition of FAK autophosphorylation [pY397] in MiaPaCa2 cells; conditions: MIA-PaCa2 cells, + 50% mouse plasma (Table 2); read-out: Mean FAK Cell Mechanistic IC50 + 50% mP MIA-PaCa2
measure: IC50

**Query** Hello, please tell me recorded IC50 for this one: CCOP(=O)(Cc1ccc(Nc2ncc(C(F)(F)F)c(Nc3ccc([C@H]4CC[C@H](N5CCN(C)CC5)CC4)c4c3C(=O)N(C)C4)n2)c(OC)c1)OCC [Example 96]
**Result** < 1 µM

**Query** Hello, please tell me recorded IC50 for this one: CCOP(=O)(Cc1ccc(Nc2ncc(C(F)(F)F)c(Nc3ccc(N4CC[C@H](O)C4)c4c3C(=O)N(C)C4)n2)c(OC)c1)OCC [Example 84]
**Result** < 1 µM

**Query** Hello, please tell me recorded IC50 for this one: CCCOP(=O)(OCCC)c1cccc(Nc2ncc(C(F)(F)F)c(NCc3cccnc3N(C)S(C)(=O)=O)n2)c1 [Example 57]
**Result** 1 to 10 µM

###

target: FAK (Homo sapiens, UniProt Q05397); assay: Biochemical HTRF (FRET) assay of FAK kinase activity; details: 100 uM ATP; biotinylated PGT substrate; read-out: Mean FAK Biochem FRET IC50 (100 uM ATP)
Sequence (Q05397 whole entry): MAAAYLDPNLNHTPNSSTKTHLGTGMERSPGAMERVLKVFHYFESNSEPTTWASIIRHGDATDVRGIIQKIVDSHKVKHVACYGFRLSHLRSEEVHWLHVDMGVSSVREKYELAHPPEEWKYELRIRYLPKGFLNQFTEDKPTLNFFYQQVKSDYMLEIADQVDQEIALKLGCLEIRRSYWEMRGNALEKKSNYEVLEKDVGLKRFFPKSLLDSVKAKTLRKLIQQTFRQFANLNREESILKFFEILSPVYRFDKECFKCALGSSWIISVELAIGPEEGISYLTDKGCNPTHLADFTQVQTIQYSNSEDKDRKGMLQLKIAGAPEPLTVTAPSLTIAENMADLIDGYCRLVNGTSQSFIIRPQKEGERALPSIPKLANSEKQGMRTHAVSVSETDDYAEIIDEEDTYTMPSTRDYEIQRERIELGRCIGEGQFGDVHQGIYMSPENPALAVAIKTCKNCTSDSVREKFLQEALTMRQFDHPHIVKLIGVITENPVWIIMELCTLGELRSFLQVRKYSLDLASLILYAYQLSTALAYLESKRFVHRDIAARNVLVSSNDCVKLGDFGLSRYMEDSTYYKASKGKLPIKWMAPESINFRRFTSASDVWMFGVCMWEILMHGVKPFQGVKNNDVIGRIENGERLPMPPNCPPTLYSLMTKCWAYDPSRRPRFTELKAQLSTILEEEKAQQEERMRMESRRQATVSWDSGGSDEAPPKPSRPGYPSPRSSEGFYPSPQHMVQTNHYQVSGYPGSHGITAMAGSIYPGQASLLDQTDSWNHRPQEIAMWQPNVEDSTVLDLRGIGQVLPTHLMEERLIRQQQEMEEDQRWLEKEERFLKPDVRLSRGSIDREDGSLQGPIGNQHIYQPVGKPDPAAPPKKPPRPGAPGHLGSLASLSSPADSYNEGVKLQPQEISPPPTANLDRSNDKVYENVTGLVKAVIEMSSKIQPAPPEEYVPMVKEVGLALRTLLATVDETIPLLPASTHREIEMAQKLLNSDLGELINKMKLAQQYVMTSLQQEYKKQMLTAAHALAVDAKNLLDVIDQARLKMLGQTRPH
pIC50: −log10 of the molar value.
For each record, write down the corresponding pIC50.

**Query** Quote pIC50 with test system FAK (Homo sapiens, UniProt Q05397) for CN(c1ncccc1CNc1nc(Nc2ccc(CP(=O)(O)O)cc2)ncc1C(F)(F)F)S(C)(=O)=O [Example 41]
**Result** 5.00 to 6.00

**Query** Quote pIC50 with test system FAK (Homo sapiens, UniProt Q05397) for CCOP(=O)(Cc1cccc(Nc2ncc(C(F)(F)F)c(NCc3cccnc3N(C)S(C)(=O)=O)n2)c1)OCC [Example 4]
**Result** 5.00 to 6.00

**Query** Quote pIC50 with test system FAK (Homo sapiens, UniProt Q05397) for CCOP(C)(=O)Cc1cccc(Nc2ncc(C(F)(F)F)c(NCc3cccnc3N(C)S(C)(=O)=O)n2)c1 (stereo not drawn) [Example 46]
**Result** 5.00 to 6.00

**Query** Quote pIC50 with test system FAK (Homo sapiens, UniProt Q05397) for CC(C)OP(=O)(Cc1ccc(Nc2ncc(C(F)(F)F)c(NCc3cccnc3N(C)S(C)(=O)=O)n2)cc1)OC(C)C [Example 27]
**Result** 5.00 to 6.00

**Query** Quote pIC50 with test system FAK (Homo sapiens, UniProt Q05397) for CCOP(=O)(Cc1ccc(Nc2ncc(C(F)(F)F)c(NCc3cccnc3N(C)S(C)(=O)=O)n2)cc1)OCC [Example 1]
**Result** > 6.00

**Query** Quote pIC50 with test system FAK (Homo sapiens, UniProt Q05397) for CCOP(=O)(OCC)C(C)c1ccc(Nc2ncc(C(F)(F)F)c(NCc3cccnc3N(C)S(C)(=O)=O)n2)cc1 (stereo not drawn) [Example 5]
**Result** > 6.00

**Query** Quote pIC50 with test system FAK (Homo sapiens, UniProt Q05397) for CCOP(=O)(OCC)c1ccc(Nc2ncc(C(F)(F)F)c(NCc3cccnc3N(C)S(C)(=O)=O)n2)cc1 [Example 2]
**Result** 5.00 to 6.00

**Query** Quote pIC50 with test system FAK (Homo sapiens, UniProt Q05397) for CCOP(=O)(OCC)C(C)(C)c1ccc(Nc2ncc(C(F)(F)F)c(NCc3cccnc3N(C)S(C)(=O)=O)n2)cc1 [Example 7]
**Result** > 6.00

**Query** Quote pIC50 with test system FAK (Homo sapiens, UniProt Q05397) for CN(c1ncccc1CNc1nc(Nc2ccc(P(=O)(O)O)cc2)ncc1C(F)(F)F)S(C)(=O)=O [Example 6]
**Result** > 6.00

###

For each record, write down the corresponding IC50.
target: FAK (Homo sapiens, UniProt Q05397); test: Cell-based capture ELISA for inhibition of FAK autophosphorylation [pY397] in MiaPaCa2 cells; conditions: MIA-PaCa2 cells, + 50% human plasma; read-out: Mean FAK Cell Mechanistic IC50 + 50% hP MIA-PaCa2

**Query** Hello, please tell me recorded IC50 for this one: CCOP(=O)(Cc1ccc(Nc2ncc(C(F)(F)F)c(Nc3ccccc3C(=O)NC)n2)c(OC)c1)OCC
**Result** < 1 µM

**Query** Hello, please tell me recorded IC50 for this one: CCOP(C)(=O)Cc1ccc(Nc2ncc(C(F)(F)F)c(Nc3ccccc3C(=O)NC)n2)c(OC)c1 (stereo not shown)
**Result** < 1 µM

**Query** Hello, please tell me recorded IC50 for this one: CCOP(C)(=O)Cc1ccc(Nc2ncc(C(F)(F)F)c(Nc3ccc(-c4cnn(C)c4)c4c3C(=O)N(C)C4)n2)cc1 (stereo not shown)
**Result** < 1 µM

**Query** Hello, please tell me recorded IC50 for this one: CCOP(C)(=O)Cc1ccc(Nc2ncc(C(F)(F)F)c(Nc3ccc(-c4cn[nH]c4)c4c3C(=O)N(C)C4)n2)cc1 (stereo not shown)
**Result** < 1 µM

**Query** Hello, please tell me recorded IC50 for this one: CCOP(=O)(Cc1ccc(Nc2ncc(C(F)(F)F)c(NCc3cccnc3N(C)S(C)(=O)=O)n2)cc1)OCC
**Result** < 1 µM

**Query** Hello, please tell me recorded IC50 for this one: CN(c1ncccc1CNc1nc(Nc2ccc(CP(C)(C)=O)cc2)ncc1C(F)(F)F)S(C)(=O)=O
**Result** 1 to 10 µM

**Query** Hello, please tell me recorded IC50 for this one: CCP(=O)(CC)Cc1ccc(Nc2ncc(C(F)(F)F)c(NCc3cccnc3N(C)S(C)(=O)=O)n2)cc1
**Result** < 1 µM
